Target: NMT1 enzyme (Homo sapiens)
Sequence (P30419 1-496): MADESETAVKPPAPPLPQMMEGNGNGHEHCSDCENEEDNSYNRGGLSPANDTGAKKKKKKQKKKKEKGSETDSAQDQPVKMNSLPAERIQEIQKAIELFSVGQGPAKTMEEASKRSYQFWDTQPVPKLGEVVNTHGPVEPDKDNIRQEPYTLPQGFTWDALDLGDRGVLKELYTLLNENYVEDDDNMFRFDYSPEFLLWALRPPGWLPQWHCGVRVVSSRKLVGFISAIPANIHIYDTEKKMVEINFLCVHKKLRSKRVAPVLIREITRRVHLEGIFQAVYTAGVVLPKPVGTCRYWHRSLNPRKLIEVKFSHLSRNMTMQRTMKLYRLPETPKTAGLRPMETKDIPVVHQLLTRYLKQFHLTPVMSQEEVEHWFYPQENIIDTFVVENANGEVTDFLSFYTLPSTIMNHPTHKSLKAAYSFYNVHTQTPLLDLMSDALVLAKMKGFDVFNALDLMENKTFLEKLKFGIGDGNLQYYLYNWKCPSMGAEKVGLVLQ
Assay: Inhibitory activity on NMT1 enzyme catalysis (fluorescence intensity, CPM probe)
Format: biochemical
Settings: 6 nM NMT1 enzyme, 1.25 µM myristoyl-CoA, 20 µM HSPP60 SRC peptide, 45 minutes at 25 °C
readoutType: pIC50
When answering, recall that pIC50 equals minus log10 of the concentration in mol/L, and write that number alone.

Looking for the measured pIC50 of Cc1c(CCOc2cc(Cl)ccc2-c2ccn3ncc(CN(C)C)c3c2)c(C#N)nn1C , can you help?
8.55

Same question for CNCc1cnn2ccc(-c3ccc(F)c(F)c3OCCc3c(C(C)(C)O)nn(C)c3C)cc12 please.
8.77

Same question for CNCc1cnn2ccc(-c3ccc(F)c(F)c3OCCc3c(C(=O)N(C)C)nn(C)c3C)cc12 please.
8.79

Same question for Cc1c(CCOc2c(F)cc(F)cc2-c2ccn3ncc(CN(C)C)c3c2)c(C(=O)N(C)C)nn1C please.
8.59

Same question for CNCc1cnn2ccc(-c3ccc(F)c(F)c3OCCc3c(C#N)nn(C)c3C)cc12 please.
8.74

Same question for CNCc1cnn2ccc(-c3ccc(Cl)cc3OCCc3c(C(=O)N(C)C)nn(C)c3C)cc12 please.
8.67

Same question for CNCc1cnn2ccc(-c3ccc(F)c(F)c3OCCc3c(C(=O)NC)nn(C)c3C)cc12 please.
8.72

Same question for CNCc1cnn2ccc(-c3ccc(F)cc3OCCc3c(C(C)(C)O)nn(C)c3C)cc12 please.
8.67

Same question for CNCc1cnn2ccc(-c3ccc(F)c(F)c3OCCc3c(C(C)C)nn(C)c3C)cc12 please.
8.49

Same question for Cc1c(CCOc2c(-c3ccn4ncc(CN(C)C)c4c3)ccc(F)c2F)c(C(=O)N(C)C)nn1C please.
8.68

Same question for CCNC(=O)c1nn(C)c(C)c1CCOc1cc(Cl)ccc1-c1ccn2ncc(CN(C)C)c2c1 please.
8.53

Same question for CNCc1cnn2ccc(-c3ccc(F)c(F)c3OCCc3c(C(C)O)nn(C)c3C)cc12 (stereo not drawn) please.
8.74

Same question for CNCc1cnn2ccc(-c3ccc(F)c(F)c3OCCc3c(CF)nn(C)c3C)cc12 please.
8.61

Same question for CNCc1cnn2ccc(-c3ccc(F)c(F)c3OCCc3c(CC#N)nn(C)c3C)cc12 please.
8.71

Same question for CNC(=O)c1nn(C)c(C)c1CCOc1cc(Cl)ccc1-c1ccn2ncc(CN(C)C)c2c1 please.
8.62

Same question for Cc1c(CCOc2cc(F)ccc2-c2ccn3ncc(CN(C)C)c3c2)c(C(=O)N(C)C)nn1C please.
8.78

Same question for Cc1c(CCOc2c(-c3ccn4ncc(CN(C)C)c4c3)ccc(Cl)c2Cl)c(C(=O)N(C)C)nn1C please.
8.43

Same question for Cc1c(CCOc2cc(Cl)ccc2-c2ccn3ncc(CN(C)C)c3c2)c(C(N)=O)nn1C please.
8.27

Same question for Cc1c(COc2cc(Cl)ccc2-c2ccn3ncc(CN(C)C)c3c2)c(C(=O)N(C)C)nn1C please.
8.20

Same question for CCN(CC)C(=O)c1nn(C)c(C)c1CCOc1cc(Cl)ccc1-c1ccn2ncc(CN(C)C)c2c1 please.
8.56

Same question for CCN(C)C(=O)c1nn(C)c(C)c1CCOc1cc(Cl)ccc1-c1ccn2ncc(CN(C)C)c2c1 please.
8.49

Cited source for all entries: patent EP4741391A1
